tested on: Mus musculus; test: Toxicity in high-fat fed Mus musculus Swiss albino (mouse) assessed as change in body weight at 30 mg/kg, po qd for 15 days (reference value: 39.9 +/- 1.3 g); type: organism-based; design: dose 30 mg/kg, route oral; details: in vivo, 360 h
Recorded Endpoint: Activity

Query :: Which Activity is reported for this compound? COc1ccc(/C=C2\SC(=O)N(Cc3ccc(C)cc3)C2=O)c(OC)c1
Result :: 6.06 g

Query :: Then COc1ccc(/C=C2\SC(=O)N(Cc3ccc(C)cc3)C2=O)cc1 ?
Result :: 5.12 g

Query :: Then CN(CCOc1ccc(CC2SC(=O)NC2=O)cc1)c1ccccn1 (stereo not given) [ROSIGLITAZONE] ?
Result :: 5.28 g

Query :: Then Cc1ccc(CN2C(=O)S/C(=C\c3ccc(N(C)C)cc3)C2=O)cc1 ?
Result :: 5.88 g

Query :: Then Cc1ccc(CN2C(=O)S/C(=C\c3ccc(Cl)cc3)C2=O)cc1 ?
Result :: 6.71 g
